Target: Cytochrome P450 3A4 (Homo sapiens) (UniProt P08684)
Sequence (P08684 whole entry, looked up): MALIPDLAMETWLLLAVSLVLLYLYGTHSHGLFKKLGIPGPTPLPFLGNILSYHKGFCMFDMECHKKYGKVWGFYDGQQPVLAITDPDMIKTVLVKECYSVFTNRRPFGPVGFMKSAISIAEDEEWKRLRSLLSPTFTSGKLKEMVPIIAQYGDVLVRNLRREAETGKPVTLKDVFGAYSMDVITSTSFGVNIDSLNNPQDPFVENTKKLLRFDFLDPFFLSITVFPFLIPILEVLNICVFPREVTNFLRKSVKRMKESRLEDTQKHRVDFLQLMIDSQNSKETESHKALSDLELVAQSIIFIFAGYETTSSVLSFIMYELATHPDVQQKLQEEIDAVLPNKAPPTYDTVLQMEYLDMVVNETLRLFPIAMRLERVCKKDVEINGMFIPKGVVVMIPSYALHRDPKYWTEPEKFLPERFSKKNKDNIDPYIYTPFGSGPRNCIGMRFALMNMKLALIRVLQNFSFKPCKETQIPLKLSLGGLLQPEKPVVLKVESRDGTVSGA
Assay: Cytochrome panel assay with activity outcomes; note: % is set by controls: 0 for no effect and ±100 for the full control effect
Conditions: recombinant CYP, pro-luciferin dealkylation, luminescence, p450-cyp3a4; series mostly up to 57.1 µM
Out of some 16,000 compounds screened, about 5,100 (32%) were called active. Not shown: some 25% with an inconclusive outcome. This is one part of the list.
Readout label: activity, negative = inhibition

Please review the entries below; each comes with its answer.
{"columns": ["Compound", "activity, negative = inhibition"],
 "data": [
  ["O=C(Nc1ccc(C(F)(F)F)cc1)c1cccn(Cc2ccc3c(c2)OC(F)(F)O3)c1=O", "inactive"],
  ["CC(C)(c1ccc(OC[C@@H]2CO2)cc1)c1ccc(OC[C@H]2CO2)cc1", "inactive"],
  ["C[C@H](CCC(=O)O)[C@H]1CC[C@]2(C)[C@@H]3C(=O)C[C@H]4C(C)(C)[C@@H](O)CC[C@]4(C)[C@H]3C(=O)C[C@@]12C", "-2.04% [at 11.4 µM] (inactive)"],
  ["CNC[C@H](O)c1ccc(O)cc1", "inactive"],
  ["Cc1cc(C)cc(NC(=S)NC2CC3CCC(C2)N3Cc2ccco2)c1 (configuration not stated)", "inactive"],
  ["NC[C@@H](Cc1ccccc1)P(=O)(O)O", "-4.81% [at 11.4 µM] (inactive)"],
  ["CCCCCCC[n+]1ccc(-c2cc[n+](CCCCCCC)cc2)cc1", "inactive"],
  ["N[C@H](Cc1c[nH]c2ccccc12)P(=O)(O)O", "-2.01% [at 11.4 µM] (inactive)"],
  ["c1ccc2cc(CC3=NCCN3)ccc2c1", "inactive"],
  ["O=[N+]([O-])O[C@H]1CO[C@H]2[C@H]1OC[C@@H]2O[N+](=O)[O-]", "inactive"]
]}

Attention now turns to another entry.
Request: Look up and report measured activity, negative = inhibition for this entry: CC1=C2C(=O)[C@@H]3[C@@H](CC=C4C[C@@H](O)CC[C@@]43C)[C@H]2CC[C@@]12O[C@H]1C[C@H](C)CN[C@H]1[C@@H]2C
Result: 7.7% [at 11.4 µM] (inactive)

====

Biological target: Cytochrome P450 3A4 (Homo sapiens) (UniProt P08684)
Assay: Cytochrome panel assay with activity outcomes; note: % is set by controls: 0 for no effect and ±100 for the full control effect
Details: recombinant CYP, pro-luciferin dealkylation, luminescence, p450-cyp3a4; series mostly up to 57.1 µM
The campaign covered roughly 16,000 compounds. About 5,100 (32%) were called active. Not shown: some 25% with an inconclusive outcome. This is one part of the list.
Readout label: activity, negative = inhibition

Please review the entries below; each comes with its answer.
{"columns": ["Compound", "Result"],
 "data": [
  ["CO[C@@H]([CH2][Hg])CN1C(=O)c2ccccc2S1(=O)=O.Cn1c(=O)c2nc[nH]c2n(C)c1=O", "2.75% [at 11.4 µM] (inactive)"],
  ["CCN(CC)CCn1ncc2c(N)ncnc21", "-6.29% [at 11.4 µM] (inactive)"],
  ["CCOC(=O)N(c1ccccc1)P1(=S)OCCO1", "-25.1% [at 11.4 µM] (inactive)"],
  ["CS(=N)(=O)CC[C@@H](N)C(=O)O (stereo not given in full)", "inactive"]
]}

Request: Look up and report measured activity, negative = inhibition for this entry: CCOP(=O)(OCC)C(NC(C)=O)C(Cl)(Cl)Cl (stereo not given)
Result: inactive

Request: Look up and report measured activity, negative = inhibition for this entry: CC[C@]1(OC(=O)CN)C(=O)OCc2c1cc1n(c2=O)Cc2cc3ccccc3nc2-1
Result: -27% [at 11.4 µM] (inactive)
